# Test system: M. tuberculosis H37Rv growth inhibition, no glycerol
# assay.explanation: M. tuberculosis growth inhibition, confirmation, H37Rv, purified and synthesized compounds (AID 493181)
# conditions.used: 90% growth inhibition concentration
// log10 of IC90 lookup, one value per entry
reported.metric: log10 of IC90 (log10 of the value in nM)

INSERT INTO measurements (molecule, measured_result) VALUES
  ('O=C(CSc1nc2ccccc2c(=O)[nH]1)NCc1ccc(Cl)cc1', 3.26),
  ('Cc1ccc2c(c1)c(C1=c3ccccc3=NC1=O)c(O)n2C', 3.17),
  ('Cc1ccc(NC(=O)C2C3/C=C\CCCCC32)cc1C (stereo unspecified)', 3.23),
  ('O=C(/C=C\c1cccs1)N1CCN(Cc2ccc3c(c2)OCO3)CC1', 3.44),
  ('CCOC(=O)COn1c2c(c3c4no[n+]([O-])c4ccc31)CCCC2', 3.58),
  ('COc1cc(NC(=O)C/C(C)=N/NC(=O)c2ccccn2)c(OC)cc1Cl', 3.92),
  ('S=c1nc[nH]c2nc[nH]c12', 3.22),
  ('Cc1nc(SCC(=O)NC2CCCCC2)[nH]c(=O)c1C', 2.73);
